# Substrate: C1O[C@@H]1[C@H]1CO1
# Protocol Summary: purified protein
# Assay Setup: 5 mM GSH, 0.10 M Tris-HCl pH 7.7, 37 °C, 1 h

Protein	kcat/Km / M⁻¹ s⁻¹
human GST A3-3 (Homo sapiens) (protein) AGKPKLHYFNGRGRMEPIRWLLAAAGVEFEEKFIGSAEDLGKLRNDGSLMFQQVPMVEIDGMKLVQTRAILNYIASKYNLYGKDIKERALIDMYTEGMADLNEMILLLPLCRPEEKDAKIALIKEKTKSRYFPAFEKVLQSHGQDYLVGNKLSRADISLVELLYYVEELDSSLISNFPLLKALKTRISNLPTVKKFLQPGSPRKPPADAKALEEARKIFRF	40
rat GST 5-5 (Rattus norvegicus) (protein) VLELYLDLLSQPCRAIYIFAKKNNIPFQMHTVELRKGEHLSDAFAQVNPMKKVPAMKDGGFTLCESVAILLYLAHKYKVPDHWYPQDLQARARVDEYLAWQHTTLRRSCLRTLWHKVMFPVFLGEQIRPEMLAATLADLDVNVQVLEDQFLQDKDFLVGPHISLADVVAITELMHPVGGGCPVFEGRPRLAAWYRRVEAAVGKDLFLEAHEVILKVRDCPPADPVIKQKLMPRVLTMIQ	38.3
human GST P1-1 (Homo sapiens) (protein) PPYTVVYFPVRGRCAALRMLLADQGQSWKEEVVTVETWQEGSLKASCLYGQLPKFQDGDLTLYQSNTILRHLGRTLGLYGKDQQEAALVDMVNDGVEDLRCKYISLIYTNYEAGKDDYVKALPGQLKPFETLLSQNQGGKTFIVGDQISFADYNLLDLLLIHEVLAPGCLDAFPLLSAYVGRLSARPKLKAFLASPEYVNLPINGNGKQ	46.7
